Target: RET G810R (Homo sapiens, UniProt P07949, G810R)
Sequence (P07949 29-1114 G810R): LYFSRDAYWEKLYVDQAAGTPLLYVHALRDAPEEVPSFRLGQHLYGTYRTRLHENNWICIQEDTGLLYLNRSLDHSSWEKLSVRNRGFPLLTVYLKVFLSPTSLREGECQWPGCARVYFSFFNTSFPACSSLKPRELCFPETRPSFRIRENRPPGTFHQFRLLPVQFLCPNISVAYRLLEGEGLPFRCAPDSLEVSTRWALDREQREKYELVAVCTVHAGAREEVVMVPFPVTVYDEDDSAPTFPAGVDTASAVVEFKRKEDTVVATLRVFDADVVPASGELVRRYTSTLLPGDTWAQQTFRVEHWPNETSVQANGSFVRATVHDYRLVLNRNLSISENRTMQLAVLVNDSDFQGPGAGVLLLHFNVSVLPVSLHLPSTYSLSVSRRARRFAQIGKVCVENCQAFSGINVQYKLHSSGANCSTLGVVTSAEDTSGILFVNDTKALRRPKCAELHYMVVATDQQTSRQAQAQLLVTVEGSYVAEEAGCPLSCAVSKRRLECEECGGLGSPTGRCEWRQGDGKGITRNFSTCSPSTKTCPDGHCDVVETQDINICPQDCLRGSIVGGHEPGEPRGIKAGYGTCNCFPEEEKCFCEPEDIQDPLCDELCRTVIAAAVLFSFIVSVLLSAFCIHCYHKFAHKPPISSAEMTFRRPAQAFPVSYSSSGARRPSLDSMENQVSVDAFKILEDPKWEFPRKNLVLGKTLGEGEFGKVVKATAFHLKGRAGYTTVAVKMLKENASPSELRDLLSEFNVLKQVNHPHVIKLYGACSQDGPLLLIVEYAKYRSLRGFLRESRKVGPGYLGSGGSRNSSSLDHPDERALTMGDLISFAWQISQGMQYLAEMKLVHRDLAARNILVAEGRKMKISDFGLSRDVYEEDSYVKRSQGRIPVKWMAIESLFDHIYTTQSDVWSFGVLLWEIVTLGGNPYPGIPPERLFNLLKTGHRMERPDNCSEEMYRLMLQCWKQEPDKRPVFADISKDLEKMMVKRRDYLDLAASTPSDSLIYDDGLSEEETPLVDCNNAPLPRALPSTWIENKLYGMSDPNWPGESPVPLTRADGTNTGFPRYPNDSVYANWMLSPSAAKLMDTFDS
Assay: In vitro kinase activity assay (mobility shift assay), RET G810R
Conditions: ATP 201 μM, reaction time 4 h
pIC50: −log10 of the molar value.
Quantity measured: pIC50

Use these answered entries as a reference point.
CNc1ccc(-c2c3nc4c(cnn4c2N)C(=O)NC[C@H](C)Oc2ncc(F)cc2CN3)cc1    < 6.00
C[C@H]1CNC(=O)c2c(Br)nn3c(N)c(-c4ccccc4)c(nc23)NCc2cc(F)cnc2O1    < 6.00
CC(=O)Nc1ccc(-c2cn3ncc4c3nc2NCc2cc(F)cnc2O[C@@H](C)CNC4=O)cc1    < 5.00
C[C@H]1CNC(=O)c2cnn3c(N)c(-c4ccc5[nH]ccc5c4)c(nc23)NCc2cc(F)cnc2O1    < 6.00
CCN(C)C(=O)Nc1ccc(-c2c3nc4c(cnn4c2N)C(=O)NC[C@H](C)Oc2ncc(F)cc2CN3)cc1    < 6.00

// switching to the query molecule
Req: Specify reported pIC50 for the molecule shown: C[C@H]1CNC(=O)c2cnn3cc(-c4ccc5[nH]c(=O)[nH]c5c4)c(nc23)NCc2cc(F)cnc2O1
Resp: < 6.00
